Target: T1, Barrier-to-autointegration factor (BAF construct with the four cysteines replaced by alanines) (human, UniProt O75531 1-89, glycine as residue 1 instead of the native methionine | C67 mutated into …)
T1 sequence: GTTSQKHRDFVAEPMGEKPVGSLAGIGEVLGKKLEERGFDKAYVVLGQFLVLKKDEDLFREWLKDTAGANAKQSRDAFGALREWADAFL
Experiment: ITC

{"BINDER": "MDNYADLSDTELTTLLRRYNIPHGPVVGSTRRLYEKKIFEYETQRR (domain or fragment, UniProt P50402 1-46, looked up, human emerin, residues 1-46 (LEM domain); also called emerin LEM domain; LEM fragment) [LEM domain of human emerin from amino acid 1 to amino acid 46]", "Kd, µM": 1.1}
